These measurements were taken from patent US20250313631A1.

Let's look at some binders and their measured EC50.
# target.of.assay: T1, recombinant mouse VISTA (His-tagged) (mouse, UniProt Q9D659 33-191)
# T1 construct: also called murine VISTA; mVISTA
# T1 sequence (looked up): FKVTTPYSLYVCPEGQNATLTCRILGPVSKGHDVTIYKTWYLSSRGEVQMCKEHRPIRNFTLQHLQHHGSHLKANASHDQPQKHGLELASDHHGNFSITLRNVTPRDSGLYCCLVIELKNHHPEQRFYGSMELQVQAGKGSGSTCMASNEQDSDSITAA
# assay.remarks: ELISA, plate coated with mouse VISTA; unit nM from the legend paragraph 697
Give the quantity in pM, number only.

Field: example entries. Status: answers known.
{"columns": ["binder", "units.symbol", "EC50"],
 "data": [
  ["anti-VISTA clone V4-C31 IgG1 (antibody, V domains shown) VH: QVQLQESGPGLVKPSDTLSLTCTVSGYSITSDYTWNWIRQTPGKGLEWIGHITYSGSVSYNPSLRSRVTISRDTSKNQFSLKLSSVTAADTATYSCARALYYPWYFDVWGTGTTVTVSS VL: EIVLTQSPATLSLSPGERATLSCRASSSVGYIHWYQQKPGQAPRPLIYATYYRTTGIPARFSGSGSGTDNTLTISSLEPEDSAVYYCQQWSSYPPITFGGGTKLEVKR", "pM", 3],
  ["anti-VISTA clone V4-C9 IgG1 (antibody, V domains shown) VH: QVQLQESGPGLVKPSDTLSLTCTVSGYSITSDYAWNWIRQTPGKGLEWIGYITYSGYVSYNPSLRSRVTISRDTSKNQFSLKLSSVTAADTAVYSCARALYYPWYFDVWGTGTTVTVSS VL: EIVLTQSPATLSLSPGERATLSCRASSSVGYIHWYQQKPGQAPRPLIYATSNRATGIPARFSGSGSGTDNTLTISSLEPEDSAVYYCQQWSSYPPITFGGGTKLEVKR", "pM", 110],
  ["anti-VISTA clone V4-C1 IgG1 (antibody, V domains shown) VH: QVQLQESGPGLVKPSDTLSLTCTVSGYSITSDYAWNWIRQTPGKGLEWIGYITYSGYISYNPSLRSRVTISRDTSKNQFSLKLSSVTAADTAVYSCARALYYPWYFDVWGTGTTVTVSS VL: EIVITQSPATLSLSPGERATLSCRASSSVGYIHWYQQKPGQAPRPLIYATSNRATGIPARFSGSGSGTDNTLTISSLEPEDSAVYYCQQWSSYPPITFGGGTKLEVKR", "pM", 3100],
  ["anti-VISTA clone V4-C28 IgG1 (antibody, V domains shown) VH: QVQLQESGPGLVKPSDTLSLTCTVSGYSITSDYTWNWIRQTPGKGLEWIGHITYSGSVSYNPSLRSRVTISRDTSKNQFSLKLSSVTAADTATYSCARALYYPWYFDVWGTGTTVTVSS VL: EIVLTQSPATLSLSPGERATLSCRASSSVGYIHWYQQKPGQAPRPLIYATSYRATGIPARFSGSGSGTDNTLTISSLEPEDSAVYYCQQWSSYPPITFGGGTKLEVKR", "pM", 4.5]
]}

GET /value?item= anti-VISTA clone V4-C27 IgG1 (antibody, V domains shown) VH: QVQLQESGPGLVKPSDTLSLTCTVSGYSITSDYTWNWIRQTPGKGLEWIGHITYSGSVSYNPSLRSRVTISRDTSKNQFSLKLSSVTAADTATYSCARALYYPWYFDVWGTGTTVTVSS VL: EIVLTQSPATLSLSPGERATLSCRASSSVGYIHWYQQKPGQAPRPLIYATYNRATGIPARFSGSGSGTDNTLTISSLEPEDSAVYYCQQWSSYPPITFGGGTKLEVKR &field=EC50 returns 2.3

GET /value?item= anti-VISTA clone V4-C30 IgG1 (antibody, V domains shown) VH: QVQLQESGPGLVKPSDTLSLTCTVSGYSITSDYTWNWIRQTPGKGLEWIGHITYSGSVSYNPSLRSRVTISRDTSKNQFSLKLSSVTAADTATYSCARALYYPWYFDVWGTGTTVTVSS VL: EIVLTQSPATLSLSPGERATLSCRASSSVGYIHWYQQKPGQAPRPLIYATYYRATGIPARFSGSGSGTDNTLTISSLEPEDSAVYYCQQWSSYPPITFGGGTKLEVKR &field=EC50 returns 1.3

GET /value?item= anti-VISTA clone V4-C24 IgG1 (antibody, V domains shown) VH: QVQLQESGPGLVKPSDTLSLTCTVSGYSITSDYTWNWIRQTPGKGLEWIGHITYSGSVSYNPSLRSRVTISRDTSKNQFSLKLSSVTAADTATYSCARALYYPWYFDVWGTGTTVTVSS VL: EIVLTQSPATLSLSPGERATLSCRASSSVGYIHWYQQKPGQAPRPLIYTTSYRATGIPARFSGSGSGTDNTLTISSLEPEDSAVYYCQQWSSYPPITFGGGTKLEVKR &field=EC50 returns 17
